Test system: FaDu cell line
MEASUREMENT PROTOCOL: Prodrug Activation in Hypoxic Stirred Tumour Cell Suspensions
EXPERIMENTAL PARAMETERS: 10 μM, 4 hours, 0.2% O2
QUANTITY NAME: Fraction of prodrug converted to active form, Hypoxic 0.2% O2

// solved cases for Fraction of prodrug converted to active form, Hypoxic 0.2% O2 follow
{"MOLECULE": "CC(Oc1cnc2cc(N3CCOCC3)nc(O[C@H]3CC[C@@H](Nc4ncc(N5CCN(C)CC5)cn4)CC3)c2c1)c1cnc([N+](=O)[O-])n1C (stereo partly drawn)", "MEAS VALUE": "A (A is 0.15 to 1)"}
{"MOLECULE": "CC(c1cnc([N+](=O)[O-])n1C)N(c1cnc2cc(N3CCOCC3)nc(O[C@H]3CC[C@@H](Nc4ncc(OC5CCN(C)C5)cn4)CC3)c2c1)S(C)(=O)=O (stereo partly drawn)", "MEAS VALUE": "B (B is 0.05 to 0.15)"}
{"MOLECULE": "Cc1cc(C)nc(N[C@H]2CC[C@@H](Oc3nc(N4CCOCC4)cc4ncc(OC(C)c5cnc([N+](=O)[O-])n5C)cc34)CC2)n1 (stereo partly drawn)", "MEAS VALUE": "A (A is 0.15 to 1)"}
{"MOLECULE": "CC(Oc1cnc2cc(N3CCOCC3)nc(O[C@H]3CC[C@@H](Nc4ccccn4)CC3)c2c1)c1cnc([N+](=O)[O-])n1C (stereo partly drawn)", "MEAS VALUE": "A (A is 0.15 to 1)"}
{"MOLECULE": "CC(c1cnn(C)c1[N+](=O)[O-])N(c1cnc2cc(N3CCOCC3)nc(O[C@H]3CC[C@@H](Nc4ncc(N5CCN(C)CC5)cn4)CC3)c2c1)S(C)(=O)=O (stereo partly drawn)", "MEAS VALUE": "B (B is 0.05 to 0.15)"}

// next entry
Incoming: Name the recorded Fraction of prodrug converted to active form, Hypoxic 0.2% O2 for Cn1c(COc2cnc3cc(N4CCOCC4)nc(O[C@H]4CC[C@@H](c5cnccn5)CC4)c3c2)cnc1[N+](=O)[O-] .
Outgoing: A (A is 0.15 to 1)

---

Examples of compounds with documented IC50 follow.
TARGET: DNA-PK phosphorylation at Serine 2056 (Homo sapiens)
Construct: FaDu cells were purchased from ATCC; host or cells: FaDu
MEASUREMENT PROTOCOL: Cellular Assay for Inhibition of DNA-PK Phosphorylation at Serine 2056 in FaDu cells (sandwich ELISA, neocarzinostatin)
Assay type: cell-based
EXPERIMENTAL PARAMETERS: pSer2056 DNA-PK, Table 3

// solved cases for IC50 follow
{"COMPOUND": "CS(=O)(=O)Nc1cnc2cc(N3CCOCC3)nc(O[C@H]3CC[C@@H](Nc4ncc(OCCO)cn4)CC3)c2c1", "MEAS VALUE": "< 100 nM"}
{"COMPOUND": "CN1CCN(c2cnc(N[C@H]3CC[C@@H](Oc4nc(N5CCOCC5)cc5ncc(O)cc45)CC3)nc2)CC1", "MEAS VALUE": "< 100 nM"}
{"COMPOUND": "CS(=O)(=O)Nc1cnc2cc(N3CCOCC3)nc(O[C@H]3CC[C@@H](Nc4ncc5c(n4)CNCC5)CC3)c2c1", "MEAS VALUE": "100 to 1000 nM"}
{"COMPOUND": "Cn1c(COc2cnc3cc(N4CCOCC4)nc(O[C@H]4CC[C@@H](Nc5ccccn5)CC4)c3c2)cnc1[N+](=O)[O-]", "MEAS VALUE": "10000 to 30000 nM"}
{"COMPOUND": "CN1CCN(c2cnc(N[C@H]3CC[C@@H](Oc4nc(N5CCOCC5)cc5ncc(NS(C)(=O)=O)cc45)CC3)nc2)CC1", "MEAS VALUE": "< 100 nM"}

Incoming: Name the recorded IC50 for CS(=O)(=O)Nc1cnc2cc(N3CCOCC3)nc(O[C@H]3CC[C@@H](Nc4ncc(N5CC6CNCC6C5)cn4)CC3)c2c1 (stereo partly shown) .
Outgoing: 100 to 1000 nM

Incoming: Name the recorded IC50 for CN1CCc2nc(N[C@H]3CC[C@@H](Oc4nc(N5CCOCC5)cc5ncc(O)cc45)CC3)ncc2C1 .
Outgoing: < 100 nM
